Assay: AUC (0 to 24 hrs) in human at 13.3 mg/kg, po qd for 21 days administered under fed condition measured after 21 days
Assay type: ADME, organism-based
Parameters: time < 24 hr, dose 13.3 mg/kg, route oral
Conditions: plasma
PROPERTY_NAME: AUC at 24 h

[[record]]
compound_smiles = "O=C(NN1C(=O)[C@@H]2[C@@H]3C=C[C@@H]([C@H]4C[C@@H]34)[C@@H]2C1=O)c1ccc(C(F)(F)F)cc1"
measured_result = "22700 ng·h/mL"


---

Assay: Cmax in human at 6.7 mg/kg, po qd for 6 days administered under fed condition measured after 6 days
Assay type: ADME, organism-based
Design: dose 6.7 mg/kg, route oral
Conditions: in vivo
PROPERTY_NAME: Cmax (ng/mL)

[[record]]
compound_smiles = "O=C(NN1C(=O)[C@@H]2[C@@H]3C=C[C@@H]([C@H]4C[C@@H]34)[C@@H]2C1=O)c1ccc(C(F)(F)F)cc1"
measured_result = 1300

